experimentalSystem: Cytochrome P450 2C19 (Homo sapiens)
Sequence (P33261 whole entry): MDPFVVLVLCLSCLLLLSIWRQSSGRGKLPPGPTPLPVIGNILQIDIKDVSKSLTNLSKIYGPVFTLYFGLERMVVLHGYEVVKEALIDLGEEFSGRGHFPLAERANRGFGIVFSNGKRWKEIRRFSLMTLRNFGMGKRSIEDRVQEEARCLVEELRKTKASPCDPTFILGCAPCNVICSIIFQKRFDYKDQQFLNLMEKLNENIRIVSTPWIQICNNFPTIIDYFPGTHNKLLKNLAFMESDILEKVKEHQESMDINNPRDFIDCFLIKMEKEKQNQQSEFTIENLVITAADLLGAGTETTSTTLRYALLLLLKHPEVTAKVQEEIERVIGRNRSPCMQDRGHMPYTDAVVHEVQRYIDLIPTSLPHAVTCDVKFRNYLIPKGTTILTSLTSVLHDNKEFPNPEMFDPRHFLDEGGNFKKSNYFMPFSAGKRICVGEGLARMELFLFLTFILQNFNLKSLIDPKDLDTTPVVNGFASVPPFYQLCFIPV
assayText: Cytochrome panel assay with activity outcomes. Panel member name: p450-cyp2c19 Compounds with AC50 equal or less than 10 uM are considered active
Type: functional
conditions: read-out: AC50
AC50 by entry:

Completed entries (count: 8):
O=C(O)[C@H](Cc1cc(I)c(O)c(I)c1)C1CCCCC1 ... 2 µM (inconclusive)
COc1ccc(C(=O)CN2C(=O)NC(C)(c3ccccc3)C2=O)cc1OC (stereo unspecified) ... 39.8 µM (inconclusive)
CCOc1ccc(/C=C/C(=O)Nc2ccc(OC)cc2[N+](=O)[O-])cc1 ... 39.8 µM (inconclusive)
Nc1cc(S(=O)(=O)O)cc2ccc(S(=O)(=O)O)cc12 ... 7.94 µM (inconclusive)
N#Cc1c2n(c3c(S)ncnc13)CCCCC2 ... 25.1 µM (inconclusive)
Cc1ccc(N(CC(N)=O)C2SC(=O)N(Cc3cccc(C(=O)O)c3)C2=O)cc1 (stereo unspecified) ... 20 µM (inconclusive)
COCCn1c(=O)c(-c2cccs2)nc2cnc(OC)nc21 ... 20 µM (inconclusive)
COC(=O)c1cn(NC(=O)c2ccc(F)cc2)c(=O)c2ccccc12 ... 17.8 µM (inconclusive)

# input molecule: CCCC(=O)Nc1nc(C(=O)OCC)cs1 ; wanted: its AC50
39.8 µM (inconclusive)

# input molecule: COc1ccc2c(c1OC)C(=O)OC2Nc1ncccc1C (stereo unspecified) ; wanted: its AC50
39.8 µM (inconclusive)

# input molecule: COc1cc(C2C(C(=O)c3cccs3)=C(O)C(=O)N2Cc2ccco2)cc(OC)c1OC (stereo unspecified) ; wanted: its AC50
14.1 µM (inconclusive)

====

experimentalSystem: UniProt:P9WHJ3
assayText: Fluorescence Cell-Free Homogeneous Dose Retest to Identify Inhibitors of RecA-Intein Splicing Activity. [Related pubchem assays (depositor defined):AID2097, AID2223, AID489010, AID492950]
Format: functional
Activity calls are given as the source filed them.
parameter: EC50

Completed entries (count: 2):
CCc1cc2c3c(c1)C1(C(=O)N3C(C)(C)C=C2C)C(C#N)=C(N)Oc2nc(O)nc(O)c21 (stereo not given) ... 2.65 µM (active)
CCOc1c(Br)cc(/C=C2\C(=O)N(CCC#N)N=C2C)cc1OC ... 1.8 µM (active)

# input compound: CCCCCn1c(N)c(C(=O)NCc2cccs2)c2nc3ccccc3nc21 ; wanted: its EC50
1.24 µM (active)

# input compound: CCOC(=O)c1c(N=C(S)N2CCOCC2)sc2c1CCN(C(=O)OCC)C2 ; wanted: its EC50
20.1 µM (active)

# input compound: CCOc1ccc(C(c2c(C)n[nH]c2O)c2c(C)n[nH]c2O)cc1OC ; wanted: its EC50
0.309 µM (active)

====

Test system: BJ
assayText: cells
Format: functional, cell-based
conditions: Homo sapiens
Counter-ions that a name gives are not always drawn. Active and inactive are the calls of the source.
EC50 by entry:

Completed entries (count: 3):
CCO/C(O)=C1/C(C)=NC(SC)=C(C#N)C1CC(C)C (centres undefined) ... 35 µM (inconclusive)
COc1ccc(C(C(=O)NC2CCCCC2)N(C(=O)CCl)c2ccccc2Cl)cc1 (centres undefined) ... > 150 µM (not active)
CCCC(=O)NC(c1ccc(N(C)C)cc1)c1ccc2cccnc2c1O (centres undefined) ... 3.42 µM (active)

// lookup EC50 | system=BJ | key= CCCCCNC(=N)N/N=C/c1c[nH]c2ccc(OC)cc12 [TEGASEROD MALEATE]
7.15 µM (active)

====

EC50 by entry:
assayText: Luminescence Cell-Based Dose Confirmation HTS to Identify Activators of 5'UTR Stem-Loop Driven Alpha-Synuclein mRNA Translation in H4 Neuroglioblastoma Cells. [Related pubchem assays: 1829 (Project Summary), 1814 (Primary HTS)]
Type: functional
The source made the active and inactive calls.

Completed entries (count: 3):
COc1ccc(NC2CC(=O)N(C(C)C)C2=O)cc1 (centres undefined) ... 5.94 µM (active)
Cc1cccc(NC(=O)c2cc(-c3ccc(C)s3)nc3ccccc23)n1 ... > 120 µM (not active)
Cc1oc(/N=C/c2ccc3c(c2)OCO3)c(C#N)c1C ... > 120 µM (not active)

Let us move to another entry and its EC50.
# input compound: COc1cccc(C(=O)Nc2nc(O)c3c(n2)CCCC3)c1 ; wanted: its EC50
14.5 µM (active)

====

experimentalSystem: Prothrombin (Homo sapiens, UniProt P00734)
assayText: Thrombin 1536 HTS Dose Response Confirmation. [Related pubchem assays: 1046 (Thrombin 1536 HTS; hits were confirmed in this assay)]
Assay type: functional
Calls of active or inactive are those of the source.
parameter: IC50

Completed entries (count: 4):
Cn1c(SCC(=O)N2c3ccccc3CCc3ccccc32)nnc1-c1cc2ccccc2cc1O ... > 50 µM (not active)
CC(C)C(NS(=O)(=O)c1ccccc1)C(=O)OCc1cc([N+](=O)[O-])cc2c1OCOC2 (stereo not given) ... > 50 µM (not active)
Cc1ccc2nc(NC(=O)CSCC(=O)OCC(=O)c3ccccc3)sc2c1 ... 0.0897 µM (active)
Cc1csc(SCC(=O)NCc2ccccc2Cl)n1 ... > 50 µM (not active)

Let us move to another entry and its IC50.
# input compound: COc1ccc(OCC(=O)Nc2cccc3ncccc23)cc1 ; wanted: its IC50
> 50 µM (not active)

====

assayText: NIH-3T3 fibroblast cytotoxicity, dose response, cytotoxicity control, cell-based, fluorescence, Alamar Blue, secondary assay (AID 2327);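 further: NIH-3T3 mouse fibroblasts cultured with fluconazole at 8 µg/mL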
Type: functional
The source made the active and inactive calls.
The reply should name one outcome from 1 (active), 0 (inactive)

Worked examples follow.
COc1ccc(NC(=O)NC(C)c2ccccc2)cc1 (centres undefined) ... 1
O=C(Nc1ccccc1N1CCOCC1)c1cc(F)cc(F)c1 ... 0
COc1ccc2c(c1OC)C(=O)N1N=C(c3ccc(O)cc3)CC21 (centres undefined) ... 0

Could you now look at the following compound, please?
Look up the recorded call for CCn1c(=O)c(C(=O)NCc2cccnc2)c(O)c2ccccc21 in this test.
0

====

assayText: HepG2 cell cytotoxicity, dose response, cytotoxicity control for Shn3 inhibitor project, CellTiter-Glo, cherry-picked (AID 624134)
Type: functional, cell-based
Active and inactive are the calls of the source.
The reply should name one outcome from YES for active, NO for inactive

COc1ccc(NS(=O)(=O)c2ccc(-c3cnc(C4CC4)o3)cc2)cc1OC ... YES

Look up the recorded call for O=S(=O)(c1ccc2c(c1)OCCO2)N1CCN(c2ncnc3sccc23)CC1 in this test.
YES

Look up the recorded call for CC(C)c1ccc(Oc2cccc3c2S(=O)(=O)N(C2CCCC2)CC(COCc2ccccc2)O3)cc1 (centres undefined) in this test.
NO

Look up the recorded call for CN(C)c1ccc(/C=C/c2ccc3ccccc3n2)cc1 in this test.
YES

====

Assay system UniProt:P05177; read-out recorded as AC50.
Sequence (P05177 whole entry): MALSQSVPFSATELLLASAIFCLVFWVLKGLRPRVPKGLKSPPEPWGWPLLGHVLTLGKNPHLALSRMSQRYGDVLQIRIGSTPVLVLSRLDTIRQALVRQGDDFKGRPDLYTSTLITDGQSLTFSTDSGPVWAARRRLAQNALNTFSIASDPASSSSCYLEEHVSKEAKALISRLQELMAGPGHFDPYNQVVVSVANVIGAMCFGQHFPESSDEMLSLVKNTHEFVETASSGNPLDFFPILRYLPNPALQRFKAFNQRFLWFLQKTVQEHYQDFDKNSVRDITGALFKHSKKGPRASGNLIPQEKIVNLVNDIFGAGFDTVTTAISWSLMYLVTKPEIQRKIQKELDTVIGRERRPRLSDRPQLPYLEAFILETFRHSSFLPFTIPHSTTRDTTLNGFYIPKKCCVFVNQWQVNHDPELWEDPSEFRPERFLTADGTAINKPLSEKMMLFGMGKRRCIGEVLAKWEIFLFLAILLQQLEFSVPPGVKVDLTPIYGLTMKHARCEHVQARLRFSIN

Completed entries (count: 4):
CC1CCC(C(C)C)C(OCC(O)CN2CCN(Cc3ccccc3)CC2)C1 (stereo unspecified) ... 12.6 µM (inconclusive)
COc1ccc2nc(N3C(=O)CC(Cc4ccc(Cl)cc4)C3=O)sc2c1 (stereo unspecified) ... 2.24 µM (inconclusive)
Clc1ccc(Sc2cc(N3CCOCC3)nc(-c3ccccc3)n2)cc1 ... 1.41 µM (inconclusive)
COc1ccc(/C(C)=N/NC(=O)c2ccc(N(C)C)cc2)cc1 ... 10 µM (inconclusive)

// lookup AC50 | system=UniProt:P05177 | key= COc1cc(C2C(C(=O)c3cccs3)=C(O)C(=O)N2Cc2ccco2)cc(OC)c1OC (stereo unspecified)
17.8 µM (inconclusive)

// lookup AC50 | system=UniProt:P05177 | key= NC1=C(c2nc(-c3ccc(F)cc3)cs2)C(=O)CN1CCCN1CCOCC1
15.8 µM (inconclusive)

// lookup AC50 | system=UniProt:P05177 | key= Fc1cccc(CSc2ncnc3c2ncn3[C@H]2CCCS2)c1
0.501 µM (inconclusive)

// lookup AC50 | system=UniProt:P05177 | key= COCCN(CCOC)S(=O)(=O)c1ccc(C(=O)Nc2nc(C)c(C(C)=O)s2)cc1
0.1 µM (inconclusive)

// lookup AC50 | system=UniProt:P05177 | key= Cn1nnnc1SCc1ccc(C(=O)Nc2ccc(Br)cc2)cc1
6.31 µM (inconclusive)

// lookup AC50 | system=UniProt:P05177 | key= COc1ccc(-c2nc3cnc(N4CCOCC4)nc3n(CCc3ccccc3)c2=O)cc1
10 µM (inconclusive)

// lookup AC50 | system=UniProt:P05177 | key= C=CCC(NCc1ccco1)c1ccc(OC)cc1 (stereo unspecified)
28.2 µM (inconclusive)

====

experimentalSystem: Fatty acid synthase (Homo sapiens)
Sequence (P49327 whole entry, the tested form may be a part): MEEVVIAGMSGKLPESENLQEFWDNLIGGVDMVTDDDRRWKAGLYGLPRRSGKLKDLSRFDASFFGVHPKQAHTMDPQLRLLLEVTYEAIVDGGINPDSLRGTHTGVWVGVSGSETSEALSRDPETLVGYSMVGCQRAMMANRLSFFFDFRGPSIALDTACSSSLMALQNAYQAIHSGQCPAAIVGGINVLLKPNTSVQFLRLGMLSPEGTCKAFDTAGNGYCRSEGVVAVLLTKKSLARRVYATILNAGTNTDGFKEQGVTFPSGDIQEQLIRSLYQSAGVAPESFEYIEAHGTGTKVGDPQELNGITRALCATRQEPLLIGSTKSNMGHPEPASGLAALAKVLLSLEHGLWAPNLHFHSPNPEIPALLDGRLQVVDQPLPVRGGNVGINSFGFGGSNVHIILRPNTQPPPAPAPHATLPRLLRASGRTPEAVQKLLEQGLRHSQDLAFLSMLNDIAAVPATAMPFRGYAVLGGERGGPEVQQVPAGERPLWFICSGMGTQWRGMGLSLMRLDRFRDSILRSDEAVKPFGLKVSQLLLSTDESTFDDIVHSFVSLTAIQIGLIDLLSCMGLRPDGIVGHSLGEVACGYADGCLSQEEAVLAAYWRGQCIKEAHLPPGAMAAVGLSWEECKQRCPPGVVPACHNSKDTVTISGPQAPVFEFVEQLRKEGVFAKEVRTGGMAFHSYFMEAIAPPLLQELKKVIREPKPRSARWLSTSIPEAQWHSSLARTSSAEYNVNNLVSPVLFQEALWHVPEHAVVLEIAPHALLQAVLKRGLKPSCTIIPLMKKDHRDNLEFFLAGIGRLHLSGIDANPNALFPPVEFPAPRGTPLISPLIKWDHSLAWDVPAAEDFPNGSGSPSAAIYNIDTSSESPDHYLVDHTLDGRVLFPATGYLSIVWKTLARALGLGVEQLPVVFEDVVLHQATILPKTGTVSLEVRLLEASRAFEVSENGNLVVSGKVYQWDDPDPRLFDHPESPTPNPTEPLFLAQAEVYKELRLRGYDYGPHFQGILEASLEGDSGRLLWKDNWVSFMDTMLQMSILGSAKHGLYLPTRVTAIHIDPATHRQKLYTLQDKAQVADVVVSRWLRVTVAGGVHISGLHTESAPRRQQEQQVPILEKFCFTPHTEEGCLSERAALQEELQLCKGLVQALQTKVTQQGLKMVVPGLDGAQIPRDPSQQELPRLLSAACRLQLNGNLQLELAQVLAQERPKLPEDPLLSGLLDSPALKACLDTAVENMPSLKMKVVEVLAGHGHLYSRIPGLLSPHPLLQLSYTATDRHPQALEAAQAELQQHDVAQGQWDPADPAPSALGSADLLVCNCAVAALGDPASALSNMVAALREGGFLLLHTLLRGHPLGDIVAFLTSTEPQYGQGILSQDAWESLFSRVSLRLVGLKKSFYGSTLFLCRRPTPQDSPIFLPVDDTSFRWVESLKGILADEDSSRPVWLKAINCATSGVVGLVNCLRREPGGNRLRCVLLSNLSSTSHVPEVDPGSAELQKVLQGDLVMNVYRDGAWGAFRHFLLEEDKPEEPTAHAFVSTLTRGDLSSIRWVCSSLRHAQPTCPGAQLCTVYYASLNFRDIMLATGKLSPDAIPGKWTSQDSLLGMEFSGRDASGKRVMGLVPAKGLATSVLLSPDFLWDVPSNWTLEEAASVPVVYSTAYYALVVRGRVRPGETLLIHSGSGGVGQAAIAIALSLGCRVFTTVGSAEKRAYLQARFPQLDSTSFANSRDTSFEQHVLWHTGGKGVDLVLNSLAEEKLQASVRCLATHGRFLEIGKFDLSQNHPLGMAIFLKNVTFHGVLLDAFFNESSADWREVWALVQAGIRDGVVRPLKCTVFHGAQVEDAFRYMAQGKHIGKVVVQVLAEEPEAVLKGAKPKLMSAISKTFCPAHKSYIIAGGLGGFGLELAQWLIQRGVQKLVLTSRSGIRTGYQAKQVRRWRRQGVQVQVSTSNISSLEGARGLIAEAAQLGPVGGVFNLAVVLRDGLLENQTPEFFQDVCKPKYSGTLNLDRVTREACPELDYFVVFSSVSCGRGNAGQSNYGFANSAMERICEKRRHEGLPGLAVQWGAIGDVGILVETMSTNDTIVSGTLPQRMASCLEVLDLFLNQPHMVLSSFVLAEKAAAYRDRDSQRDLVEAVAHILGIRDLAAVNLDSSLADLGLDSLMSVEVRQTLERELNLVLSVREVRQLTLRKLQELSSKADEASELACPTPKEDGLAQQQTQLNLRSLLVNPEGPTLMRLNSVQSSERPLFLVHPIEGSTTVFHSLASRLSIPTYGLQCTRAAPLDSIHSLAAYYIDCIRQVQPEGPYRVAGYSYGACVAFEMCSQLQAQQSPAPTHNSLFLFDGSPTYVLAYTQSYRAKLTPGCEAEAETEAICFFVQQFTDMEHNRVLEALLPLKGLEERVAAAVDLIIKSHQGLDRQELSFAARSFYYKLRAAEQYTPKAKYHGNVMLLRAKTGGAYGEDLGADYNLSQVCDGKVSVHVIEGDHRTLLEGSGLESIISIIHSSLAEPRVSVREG
assayText: FAS thioesterase domain inhibitors, dose response, biochemical, kinetic fluorescence intensity (AID 624326);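 further: rate of fluorescence rise from hydrolysis of a fluorogenic O-methyl fluorescein ester substrate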
Format: functional
Active and inactive are the calls of the source.
parameter: IC50

Completed entries (count: 2):
CC(C)(C)OC(=O)NCCCC[C@H](NC(=O)c1[nH]cnc1C(=O)NCC(=O)OCc1ccccc1)C(=O)OC(C)(C)C ... 0.16 µM (active)
CC(C)c1ccc(CCNC(=O)c2ccc([N+](=O)[O-])cc2)cc1 ... 1.71 µM (active)

# input molecule: O=Cc1s/c(=N\S(=O)(=O)c2ccccc2)n(CCCCl)c1Cl ; wanted: its IC50
3.15 µM (active)

# input molecule: CC(=O)N1N=C(c2ccc(Br)cc2)CC1c1cccc([N+](=O)[O-])c1 (stereo not drawn) ; wanted: its IC50
5.14 µM (active)

# input molecule: N#Cc1c(-c2ccccc2)c(-c2ccccc2)nn(CC(=O)NNC(=O)Nc2ccc(Cl)cc2)c1=O ; wanted: its IC50
3.01 µM (active)

# input molecule: COc1ccc([C@@H]2[C@@H]3C(=O)N(C(C)(C)C)C(=O)[C@@H]3[C@]3(Cc4ccc(Cl)cc4)C(=O)N(c4ccc(Br)cc4)C(=O)N23)cc1 ; wanted: its IC50
11.2 µM (active)

# input molecule: O=C(CCCc1ccccc1)Nc1cccc([N+](=O)[O-])c1 ; wanted: its IC50
3.7 µM (active)

# input molecule: CN(CCO)c1cc(Sc2nc3ccccc3s2)c2nonc2c1[N+](=O)[O-] ; wanted: its IC50
2.14 µM (active)
